- TARGET ENTITY: DLG1_1, Q12959
- EXPERIMENT DESCRIPTION: holdup assay
- Parameters: key: below the threshold = too weak to quantify, mostly under pKd 3.1 to 4
- ASSAY CONTEXT: plain residues with an end cap or a label only (N-terminal biotin on a linker: ado-ado)

[
  {
    "BINDER": "LESTTVGTSV [KARS1, Q15046]",
    "pKd": 4.27
  },
  {
    "BINDER": "TISFTQTSQF [SLC1A1, P43005]",
    "pKd": "below the threshold"
  },
  {
    "BINDER": "ARSAAASNYV [CLDN4, O14493]",
    "pKd": "below the threshold"
  },
  {
    "BINDER": "NVYGIESVKI [GRIA2, P42262]",
    "pKd": "below the threshold"
  },
  {
    "BINDER": "QSGLYESEEL [MYOT, Q9UBF9]",
    "pKd": "below the threshold"
  },
  {
    "BINDER": "EDPRVEVTQF [SLC22A9, Q8IVM8]",
    "pKd": "below the threshold"
  },
  {
    "BINDER": "ARGPPRESEV [FAM110D, Q8TAY7]",
    "pKd": 4.7
  },
  {
    "BINDER": "TRKRSGEAAV [PFKM, P08237]",
    "pKd": "below the threshold"
  },
  {
    "BINDER": "PSVGSKKTVL [REELD1, A0A1B0GV85]",
    "pKd": "below the threshold"
  },
  {
    "BINDER": "NIAESLESLV [PTPRZ1, P23471]",
    "pKd": 4.57
  },
  {
    "BINDER": "RDPPAEWTRV [PTPN18, Q99952]",
    "pKd": 4.09
  },
  {
    "BINDER": "KPGKGSETVV [FZD4, Q9ULV1]",
    "pKd": 4.65
  },
  {
    "BINDER": "EPQYQPGENL [SRC, P12931]",
    "pKd": "below the threshold"
  }
]
